- targetSystem: T1, RBFOX1 RRM RbFoxmut (Fox-RRM*) (Homo sapiens, UniProt Q9NWB1 109-208, R118D;E147R;N151S;E152T)
- T1 sequence: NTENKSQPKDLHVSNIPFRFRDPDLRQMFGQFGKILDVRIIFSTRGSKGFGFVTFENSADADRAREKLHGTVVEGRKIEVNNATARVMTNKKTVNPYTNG
- assayMethodText: EMSA; HiTS-Eq, 1 nM pool, 10 min; buffer printed only for the single-RNA assays: 10 mM Tris pH 7.5, 150 mM NaCl, 3.4 mM EDTA, 0.001% NP-40, 30 C
- measurementContext: tags: His6 N-terminal (pET28a); label: 5' 32P
Over roughly 16,000 sequences, “ka relative to ugcaugu” has its median near 0.096; the highest 2% begin near 0.35. The full list was thinned out, with the highest values kept by preference.
experimentalReadout: binding signal

- binder: "AUGUUAC (DNA:RNA) RNA: GGGAGACCGGAAUUCAGAUUGUCCAUGUUACUUAAAUCCCGUCGUAGCCACCA DNA 1: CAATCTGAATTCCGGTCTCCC DNA 2: TGGTGGCTACGACGGGATT"
  experimentalReadout: "binding signal"
  observedValue: "0.161 KA relative to UGCAUGU"

Problem: Please look at this binder and report its binding signal: UUCCUAC (DNA:RNA) RNA: GGGAGACCGGAAUUCAGAUUGUCCUUCCUACUUAAAUCCCGUCGUAGCCACCA DNA 1: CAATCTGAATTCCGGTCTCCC DNA 2: TGGTGGCTACGACGGGATT
Result: 0.0836 KA relative to UGCAUGU

Problem: Please look at this binder and report its binding signal: UUUUCCC (DNA:RNA) RNA: GGGAGACCGGAAUUCAGAUUGUCCUUUUCCCUUAAAUCCCGUCGUAGCCACCA DNA 1: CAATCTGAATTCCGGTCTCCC DNA 2: TGGTGGCTACGACGGGATT
Result: 0.0312 KA relative to UGCAUGU

Problem: Please look at this binder and report its binding signal: GUAGCCA (DNA:RNA) RNA: GGGAGACCGGAAUUCAGAUUGUCCGUAGCCAUUAAAUCCCGUCGUAGCCACCA DNA 1: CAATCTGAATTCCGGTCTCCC DNA 2: TGGTGGCTACGACGGGATT
Result: 0.082 KA relative to UGCAUGU
